// provenance: patent US12036226B2

assay: Phase 1 study of pharmacokinetics and safety of imeglimin in subjects with renal impairment compared to normal renal function; format: in vivo, human; conditions: human, urine, po, 1000 mg, 1000 mg QD oral, Day 8, CKD Stage 3 (moderate renal impairment) (N = 6), geometric mean; read-out: CLR (renal clearance)
readout-kind: CL renal (mL/min)
Could you give me the number in mL/min? Just the number is fine.

Asked: # return recorded CL renal for entry C[C@H]1N=C(N(C)C)N=C(N)N1
Given back: 197

###

assay: Phase 1 study of pharmacokinetics and safety of imeglimin in subjects with renal impairment compared to normal renal function; format: in vivo, human; settings: human, plasma, po, 1000 mg, 1000 mg QD oral, Day 8, CKD Stage 3 (moderate renal impairment; N = 6), geometric mean
readout-kind: AUC(0-t) (ng·h/mL)
Please reply with the bare figure in ng·h/mL and do not write the unit itself.

Asked: For C[C@H]1N=C(N(C)C)N=C(N)N1 , write its AUC(0-t).
Given back: 29100

###

test: Phase 1 study of pharmacokinetics and safety of imeglimin in subjects with renal impairment compared to normal renal function; type: in vivo, human; conditions: human, plasma, po, 1000 mg, 1000 mg QD oral, Day 8, CKD stage 2 (mild renal impairment; N = 5), geometric mean; read-out: Cav
readout-kind: concentration at 8 day (ng/mL)
The answer is to be given in ng/mL; state only the numeric part.

Asked: Fill in reported concentration at 8 day for this entry: C[C@H]1N=C(N(C)C)N=C(N)N1
Given back: 838

###

assay: Phase 1 study of pharmacokinetics and safety of imeglimin in subjects with renal impairment compared to normal renal function; assay type: in vivo, human; conditions: human, plasma, oral, across groups
readout-kind: half-life

Asked: Specify half-life for C[C@H]1N=C(N(C)C)N=C(N)N1 and stop.
Given back: 13 to 26 h

###

assay: Phase 1 study of pharmacokinetics and safety of imeglimin in subjects with renal impairment compared to normal renal function; assay type: in vivo, human; conditions: human, plasma, po, 1000 mg, 1000 mg QD oral, Day 8, CKD stage 2 (mild renal impairment; N = 5), geometric mean
readout-kind: AUC(0-t) (ng·h/mL)
The figure you give is taken to be in ng·h/mL; do not add the unit.

Asked: Return AUC(0-t) for the following compound: C[C@H]1N=C(N(C)C)N=C(N)N1
Given back: 20100

###

assay: Phase 1 study of pharmacokinetics and safety of imeglimin in subjects with renal impairment compared to normal renal function; type: in vivo, human; details: human, plasma, po, 500 mg, 500 mg bid oral, Day 8, Part 2 normal renal function (N = 6), geometric mean; read-out: Vz/F
readout-kind: Vd/F

Asked: Look up and state reported Vd/F for C[C@H]1N=C(N(C)C)N=C(N)N1
Given back: 1550 L

###

assay: Phase 1 study of pharmacokinetics and safety of imeglimin in subjects with renal impairment compared to normal renal function; assay type: in vivo, human; conditions: human, plasma, po, 500 mg, 500 mg bid oral, Day 8, Part 1 CKD Stage 3 (moderate renal impairment; N = 6), geometric mean; read-out: Cav
readout-kind: concentration at 8 day (ng/mL)
The figure you give is taken to be in ng/mL; do not add the unit.

Asked: Annotate the molecule C[C@H]1N=C(N(C)C)N=C(N)N1 with its measured concentration at 8 day.
Given back: 1430
